Each entry below carries its recorded pKi.
assay.system: Menin-MLL (Homo sapiens (Human))
Sequence (O00255 whole entry): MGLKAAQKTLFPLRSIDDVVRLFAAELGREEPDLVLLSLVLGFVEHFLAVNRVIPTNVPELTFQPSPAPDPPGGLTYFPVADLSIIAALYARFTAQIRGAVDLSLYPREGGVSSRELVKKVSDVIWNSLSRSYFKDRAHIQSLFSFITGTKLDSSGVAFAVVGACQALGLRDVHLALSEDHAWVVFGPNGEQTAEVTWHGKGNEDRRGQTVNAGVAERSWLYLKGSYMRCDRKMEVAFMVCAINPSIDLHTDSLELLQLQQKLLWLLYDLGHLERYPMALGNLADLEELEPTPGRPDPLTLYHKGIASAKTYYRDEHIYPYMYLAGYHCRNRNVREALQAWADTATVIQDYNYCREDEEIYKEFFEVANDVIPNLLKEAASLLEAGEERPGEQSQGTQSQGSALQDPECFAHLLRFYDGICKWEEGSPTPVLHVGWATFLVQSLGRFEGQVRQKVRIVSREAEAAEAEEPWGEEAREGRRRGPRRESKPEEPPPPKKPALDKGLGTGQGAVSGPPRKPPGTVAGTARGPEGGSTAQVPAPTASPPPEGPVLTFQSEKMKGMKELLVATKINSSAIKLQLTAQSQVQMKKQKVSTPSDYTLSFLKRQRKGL
protocol.summary: Determination of binding constants (Ki) to Menin-MLL (HTRF)
experimental.parameters: HTRF; 0.25 nM H-FL-Menin, 3.2 nM FITC-MLL-4-43, 24 hr incubation; read-out: Menin-MLL Ki HTRF Assay: Ki
pKi: −log10 of the molar value.

[
  {
    "compound": "C[C@@H]1COC[C@@H](C)N1C(=O)c1cc(F)ccc1Oc1cncnc1N1CC2(CCN(C[C@@H]3CC[C@@H](NS(=O)(=O)N(C)C)CO3)CC2)C1",
    "pKi": "> 9.00"
  },
  {
    "compound": "CC(C)N(C(=O)c1cc(F)ccc1Oc1cncnc1N1CC2(CCN(C[C@@H]3CC[C@@H](NS(=O)(=O)C(C)C)CO3)CC2)C1)[C@@H]1CCOC1",
    "pKi": "> 9.00"
  }
]

Next, consider the following molecule.
Need pKi of CCN(C(=O)c1cc(F)ccc1Oc1cncnc1N1CC2(CCN(C[C@@H]3CC[C@@H](NS(=O)(=O)c4cccnc4)CO3)CC2)C1)C(C)C , thanks.
> 9.00

###

assay.system: hERG (Homo sapiens (Human))
protocol.summary: Patch clamp assay (hERG tail currents, whole-cell)
Type: cell-based
experimental.parameters: 100 μM compound, hERG transfected HEK 293 cells
recorded.endpoint: hERG % Remaining 100 μM

[
  {
    "compound": "CNS(=O)(=O)N[C@@H]1CC[C@@H](CN2CCC3(CC2)CN(c2ncncc2Oc2ccc(F)cc2C(=O)N(C(C)C)C(C)C)C3)OC1",
    "hERG % Remaining 100 μM": "+++ (“+++” means ≥66%)"
  },
  {
    "compound": "CC(C)N(C(=O)c1cc(F)ccc1Oc1cncnc1N1CC2(CCN(C[C@@H]3CC[C@@H](NS(=O)(=O)N(C)C)CO3)CC2)C1)[C@@H]1CCOC1",
    "hERG % Remaining 100 μM": "+++ (“+++” means ≥66%)"
  },
  {
    "compound": "CCN(C(=O)c1cc(F)ccc1Oc1cncnc1N1CC2(CCN(C[C@H]3CC[C@H](NS(=O)(=O)CC)CC3)CC2)C1)C(C)C",
    "hERG % Remaining 100 μM": "+ (“+” means <33%)"
  },
  {
    "compound": "CC(C)N(C(=O)c1cc(F)ccc1Oc1cncnc1N1CC2(CCN(C[C@@H]3CC[C@@H](NS(=O)(=O)N(C)C)CO3)CC2)C1)C1CC1",
    "hERG % Remaining 100 μM": "+ (“+” means <33%)"
  },
  {
    "compound": "CC(C)N(C(=O)c1cc(F)ccc1Oc1cncnc1N1CC2(CCN(C[C@@H]3CC[C@@H](NS(=O)(=O)C4CC4)CO3)CC2)C1)[C@H]1CCOC1",
    "hERG % Remaining 100 μM": "+++ (“+++” means ≥66%)"
  }
]

GET /values?readout=hERG % Remaining 100 μM&item= CCS(=O)(=O)N[C@@H]1CC[C@@H](CN2CCC3(CC2)CN(c2ncncc2Oc2ccc(F)cc2C(=O)N(CC(F)F)C(C)C)C3)OC1
+ (“+” means <33%)

// repeat for CC(C)N(C(=O)c1cc(F)ccc1Oc1cncnc1N1CC2(CCN(C[C@@H]3CC[C@@H](NS(=O)(=O)C4CC4)CO3)CC2)C1)C(C)C and report
+ (“+” means <33%)

Same thing, different molecule: CC(C)N(C(=O)c1cc(F)ccc1Oc1cncnc1N1CC2(CCN(C[C@@H]3CC[C@@H](NS(=O)(=O)C(C)C)CO3)CC2)C1)C(C)C
+ (“+” means <33%)

###

IC50 by entry:
Test system: MV4-11 cells
protocol.summary: Cell proliferation assay MV4;11 (CellTiter-Glo, 72 hours)
Format: cell-based
experimental.parameters: Homo sapiens; MV4;11 leukemia cell line, 72 hours; read-out: MV4; 11 IC50

Recorded results for 4 molecules are shown here.
[
  {
    "compound": "CC(C)N(C(=O)c1cc(F)ccc1Oc1cncnc1N1CC2(CCN(C[C@@H]3CC[C@@H](NS(=O)(=O)C4CC4)CO3)CC2)C1)C(C)C",
    "assay.system": "MV4-11 cells",
    "IC50": "< 100 nM"
  },
  {
    "compound": "CNS(=O)(=O)N[C@@H]1CC[C@@H](CN2CCC3(CC2)CN(c2ncncc2Oc2ccc(F)cc2C(=O)N(C(C)C)C(C)C)C3)OC1",
    "assay.system": "MV4-11 cells",
    "IC50": "< 100 nM"
  },
  {
    "compound": "CCN(C(=O)c1cc(F)ccc1Oc1cncnc1N1CC2(CCN(C[C@@H]3CC[C@@H](NS(N)(=O)=O)CO3)CC2)C1)C(C)C",
    "assay.system": "MV4-11 cells",
    "IC50": "100 to 1000 nM"
  },
  {
    "compound": "CCN(C(=O)c1cc(F)ccc1Oc1cncnc1N1CC2(CCN(C[C@@H]3CC[C@@H](NS(=O)(=O)N(C)C)CO3)CC2)C1)C(C)C",
    "assay.system": "MV4-11 cells",
    "IC50": "< 100 nM"
  }
]

# input for lookup
Record lookup: for MV4-11 cells, what IC50 belongs to CC(C)N(C(=O)c1cc(F)ccc1Oc1cncnc1N1CC2(CCN(C[C@@H]3CC[C@@H](NS(=O)(=O)N4CCC4)CO3)CC2)C1)C1COC1 ?
< 100 nM

###

assay.system: hERG (Homo sapiens (Human), UniProt Q12809)
Sequence (Q12809 whole entry): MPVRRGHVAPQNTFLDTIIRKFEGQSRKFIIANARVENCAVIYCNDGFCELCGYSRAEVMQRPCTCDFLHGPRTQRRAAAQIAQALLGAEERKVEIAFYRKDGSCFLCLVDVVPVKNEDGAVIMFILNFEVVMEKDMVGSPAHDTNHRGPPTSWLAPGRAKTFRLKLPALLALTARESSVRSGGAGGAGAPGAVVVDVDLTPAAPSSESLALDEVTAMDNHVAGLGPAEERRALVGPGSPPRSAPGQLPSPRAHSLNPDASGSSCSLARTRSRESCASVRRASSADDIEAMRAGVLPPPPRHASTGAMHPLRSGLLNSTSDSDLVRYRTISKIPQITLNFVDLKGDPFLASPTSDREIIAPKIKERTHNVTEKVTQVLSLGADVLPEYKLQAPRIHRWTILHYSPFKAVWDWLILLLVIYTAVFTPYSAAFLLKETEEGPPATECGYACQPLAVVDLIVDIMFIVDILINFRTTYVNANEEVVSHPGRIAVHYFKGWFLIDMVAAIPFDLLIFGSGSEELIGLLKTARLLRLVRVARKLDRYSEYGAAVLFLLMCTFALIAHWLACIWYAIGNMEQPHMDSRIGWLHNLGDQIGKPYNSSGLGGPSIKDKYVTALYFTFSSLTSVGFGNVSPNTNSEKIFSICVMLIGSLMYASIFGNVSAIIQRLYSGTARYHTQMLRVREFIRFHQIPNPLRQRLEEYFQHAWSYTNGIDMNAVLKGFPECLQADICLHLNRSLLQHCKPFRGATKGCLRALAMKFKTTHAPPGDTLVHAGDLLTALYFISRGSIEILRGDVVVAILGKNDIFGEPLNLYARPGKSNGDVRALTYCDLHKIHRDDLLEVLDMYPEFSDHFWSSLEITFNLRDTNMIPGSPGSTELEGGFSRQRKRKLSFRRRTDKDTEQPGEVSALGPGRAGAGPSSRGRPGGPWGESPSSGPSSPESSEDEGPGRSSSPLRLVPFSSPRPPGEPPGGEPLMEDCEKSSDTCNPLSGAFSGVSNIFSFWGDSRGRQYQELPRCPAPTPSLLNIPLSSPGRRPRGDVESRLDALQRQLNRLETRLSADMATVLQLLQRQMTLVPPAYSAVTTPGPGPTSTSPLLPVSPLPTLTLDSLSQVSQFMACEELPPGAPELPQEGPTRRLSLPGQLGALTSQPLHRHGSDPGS
protocol.summary: Patch clamp assay (hERG tail currents, whole-cell)
Assay type: cell-based
experimental.parameters: 30 μM compound, hERG transfected HEK 293 cells

[
  {
    "molecule": "CC(C)N(C(=O)c1cc(F)ccc1Oc1cncnc1N1CC2(CCN(C[C@@H]3CC[C@@H](NS(=O)(=O)c4cnn(C)c4)CO3)CC2)C1)C(C)C [Compound 86]",
    "hERG % Remaining 30 μM": "+++ (“+++” means ≥66%)"
  },
  {
    "molecule": "CCN(C(=O)c1cc(F)ccc1Oc1cncnc1N1CC2(CCN(C[C@@H]3CC[C@@H](NS(=O)(=O)N(C)C)CO3)CC2)C1)C(C)C [Compound 49]",
    "hERG % Remaining 30 μM": "+++ (“+++” means ≥66%)"
  }
]

###

assay.system: hERG (Homo sapiens (Human))
protocol.summary: Patch clamp assay (hERG tail currents, whole-cell)
Assay type: cell-based
experimental.parameters: 30 μM compound, hERG transfected HEK 293 cells
recorded.endpoint: hERG % Remaining 30 μM

[
  {
    "molecule": "CCNS(=O)(=O)N[C@@H]1CC[C@@H](CN2CCC3(CC2)CN(c2ncncc2Oc2ccc(F)cc2C(=O)N(CC(F)(F)F)C(C)C)C3)OC1 [Compound 153]",
    "assay.system": "hERG (Homo sapiens (Human))",
    "hERG % Remaining 30 μM": "+++ (“+++” means ≥66%)"
  },
  {
    "molecule": "CC(C)N(C(=O)c1cc(F)ccc1Oc1cncnc1N1CC2(CCN(C[C@@H]3CC[C@@H](NS(=O)(=O)N4CCC[C@H]4C)CO3)CC2)C1)C(C)C [Compound 203]",
    "assay.system": "hERG (Homo sapiens (Human))",
    "hERG % Remaining 30 μM": "+ (“+” means <33%)"
  },
  {
    "molecule": "CCN(C(=O)c1cc(F)ccc1Oc1cncnc1N1CC2(CCN(C[C@@H]3CC[C@@H](NS(=O)(=O)c4ccc(=O)[nH]c4C)CO3)CC2)C1)C(C)C [Compound 217]",
    "assay.system": "hERG (Homo sapiens (Human))",
    "hERG % Remaining 30 μM": "+++ (“+++” means ≥66%)"
  },
  {
    "molecule": "CCN(C(=O)c1cc(F)ccc1Oc1cncnc1N1CC2(CCN(C[C@@H]3CC[C@@H](NS(=O)(=O)c4c[nH]c(=O)c(C)c4)CO3)CC2)C1)C(C)C [Compound 218]",
    "assay.system": "hERG (Homo sapiens (Human))",
    "hERG % Remaining 30 μM": "+ (“+” means <33%)"
  },
  {
    "molecule": "CC(C)N(CCC#N)C(=O)c1cc(F)ccc1Oc1cncnc1N1CC2(CCN(C[C@@H]3CC[C@@H](NS(=O)(=O)N(C)C)CO3)CC2)C1 [Compound 183]",
    "assay.system": "hERG (Homo sapiens (Human))",
    "hERG % Remaining 30 μM": "+++ (“+++” means ≥66%)"
  }
]

Now look at this entry.
Request body: readout hERG % Remaining 30 μM, system hERG (Homo sapiens (Human)), query CCN(C(=O)c1cc(F)ccc1Oc1cncnc1N1CC2(CCN(C[C@@H]3CC[C@@H](NS(=O)(=O)c4ccc(OC)cc4)CO3)CC2)C1)C(C)C [Compound 62] . Return the value.
+ (“+” means <33%)

From: patent US11919901B2
